protocolDetails: Inhibition of baker's yeast alpha-glucosidase preincubated for 15 to 20 mins followed by p-nitrophenyl-alpha-D-glucopyranoside substrate addition measured after 45 to 60 mins by spectrophotometric method
Set-up: species or system Saccharomyces cerevisiae
statedConditions: read-out: IC50
testReadout: IC50 (µM)
// units = µM; emit number, no label

compound: O=C1CC(c2ccc(C(F)(F)F)cc2)Nc2ccccc21 (stereo unspecified)
valueReported: 53.5

compound: CCC1CC(=O)c2ccccc2N1 (stereo unspecified)
valueReported: 272

compound: O=C1CC(c2ccncc2)Nc2ccccc21 (stereo unspecified)
valueReported: 773

compound: O=C1CC(c2ccc(F)cc2F)Nc2ccccc21 (stereo unspecified)
valueReported: 211

compound: O=C1CC(C2CCOC2)Nc2ccccc21 (stereo unspecified)
valueReported: 867

compound: O=C1CC(C2CCCCC2)Nc2ccccc21 (stereo unspecified)
valueReported: 494

compound: C[C@H]1O[C@H](O[C@H]2[C@H](O)[C@@H](O)[C@@H](O[C@H]3[C@H](O)[C@@H](O)C(O)O[C@@H]3CO)O[C@@H]2CO)[C@H](O)[C@@H](O)[C@@H]1N[C@H]1C=C(CO)[C@@H](O)[C@H](O)[C@H]1O (stereo partly specified)
valueReported: 360

compound: O=C1CC(c2ccsc2)Nc2ccccc21 (stereo unspecified)
valueReported: 72.4

compound: CCCCC1CC(=O)c2cc(OC)ccc2N1 (stereo unspecified)
valueReported: 683

compound: O=C1CC(c2ccoc2)Nc2ccccc21 (stereo unspecified)
valueReported: 352

Now, please, on to the next compound.
// CCCC1CC(=O)c2ccccc2N1 (stereo unspecified) : IC50 value = 190
